System: PC-3
Experiment: NCI tumour cell line growth inhibition, 48 h
Active and inactive are the calls of the source. Cut-off read from the data, not from the text of the source: active = GI50 up to about 1.1 µM and inactive = higher.
Possible outcomes: active, inactive

{"Molecule": "Cc1cc(Cl)ccc1NC(=O)/C(Cl)=C(/Cl)C(=O)O", "Class assignment": "inactive"}
{"Molecule": "[O-][Cl+3]([O-])([O-])O.c1ccc(C2=NN2c2ccccc2)cc1", "Class assignment": "inactive"}
{"Molecule": "CCNCCCNc1c2ccccc2nc2ccccc12", "Class assignment": "active"}
{"Molecule": "CCN1C/C(=C\\c2ccc(Cl)cc2)c2[nH]c(=O)c(C#N)c(-c3ccc(Cl)cc3)c2C1", "Class assignment": "inactive"}
{"Molecule": "CC(=O)OCC1OC(n2c(-c3ccccc3)c(/N=N/c3ccccc3)c(C)c(C#N)c2=S)C(OC(C)=O)C(OC(C)=O)C1OC(C)=O (stereo unspecified)", "Class assignment": "inactive"}
{"Molecule": "COc1ccc2c3c1O[C@H]1C(O)CCC4(O)[C@@H](C2)NCC[C@]314 (stereo partly specified)", "Class assignment": "inactive"}
